system: SK-MEL-5 melanoma; assay: NCI tumour cell line growth inhibition, 48 h
Observable: TGI

In the examples that follow, each entry is paired with its recorded TGI.
1. CC1=NN(C(=O)CC(=O)N(C(=O)c2ccccc2)c2ccc(Cl)cc2)C(=O)C1N=Nc1ccc([N+](=O)[O-])cc1 (stereo unspecified); > 10 µM
2. CC(=O)NC(CC(C)C)C(=O)NC(CC(C)C)C(=O)NC(C=O)CCCN=C(N)N (stereo unspecified); > 100 µM
3. O=C1CC2(CCC(O)(c3ccccc3)C(C(=O)c3ccccc3)C2)C(=O)c2ccccc2N1 (stereo unspecified); > 100 µM
4. COC(=O)C#Cc1cccc(OC)c1OC; > 100 µM
5. COC(=O)C1=C(C(=O)OC)C2(CCCCCC2=O)OC1=O (stereo unspecified); > 100 µM

Pending compound:
Consider the compound shown here: `COc1cc2c[n+](C)c3c4cc(OC)c(OC)cc4c(OCc4ccccc4)cc3c2cc1OC` What is its recorded TGI?
2.69 µM

* * *

system: OVCAR-5 ovarian; assay: NCI tumour cell line growth inhibition, 48 h
Listed molecules paired with reported TGI

Consider the molecule shown here: `[N-]=[N+]=Nc1c(N2CCOCC2)c(Cl)nc2ccccc12` What is its recorded TGI?
> 100 µM

Consider the molecule shown here: `CC1=C2C(=O)c3ccccc3C(=O)[C@H]2C[C@@H](N2CCCC2=O)O1` What is its recorded TGI?
42.5 µM

Consider the molecule shown here: CCCCCCCCCCC(O)CCCCCCC(=O)O (stereo unspecified) What is its recorded TGI?
> 100 µM

* * *

system: MDA-MB-435; assay: NCI tumour cell line growth inhibition, 48 h
Listed molecules paired with reported TGI

Consider the molecule shown here: `CSC(Cc1ccc2c(c1)Sc1ccccc1O2)=[N+]1CCOCC1` What is its recorded TGI?
> 100 µM

Consider the molecule shown here: `ClC1=C(Cl)C(Cl)(Cl)SS1` What is its recorded TGI?
> 10 µM

Consider the molecule shown here: `CN1CCN(C(=S)N(C(=O)c2ccco2)C2CCCCC2)CC1` What is its recorded TGI?
> 100 µM

Consider the molecule shown here: `CC(C)c1ccc(/C=C2\N=C(c3ccc([N+](=O)[O-])cc3)OC2=O)cc1` What is its recorded TGI?
> 100 µM

Consider the molecule shown here: CC1=NN(C(=O)c2ccc(Cl)cc2)C(=O)C1N=Nc1ccc(S(=O)(=O)Nc2ncccn2)cc1 (stereo not given) What is its recorded TGI?
> 100 µM

* * *

tested on: SK-MEL-5 melanoma; experiment: NCI tumour cell line growth inhibition, 48 h
Observable: TGI

In the examples that follow, each entry is paired with its recorded TGI.
1. CCCNc1[nH]c(C(=O)c2ccccc2)c(N)c1C(=S)Nc1ccccc1; > 100 µM
2. O=C(CCCCN1CCOCC1)Nc1ccc(Cn2nnc3c2C(=O)c2nnn(Cc4ccc(NC(=O)CCCCN5CCOCC5)cc4)c2C3=O)cc1; 0.141 µM
3. C[Si](C)(c1ccccc1)C1CC(=O)CC(=O)C1; > 100 µM
4. Cc1nc2sccn2c1C(=O)N/N=C1\SCC(=O)N1C; > 100 µM
5. c1ccc2c3ccn4ccc5c6ccccc6[nH]c5c4c-3nc2c1; 2.8 µM

Consider the molecule shown here: `COc1ccc(Nc2nc3c(N)cc(C(F)(F)F)cc3nc2-c2ccccc2)cc1OC` What is its recorded TGI?
62.3 µM

Consider the molecule shown here: `CO/C(=N\N=Cc1ccccc1)c1ccncc1` What is its recorded TGI?
> 100 µM

Consider the molecule shown here: O=S(/C=C/C=C/S(=O)(=O)c1ccccc1)c1ccccc1 (stereo unspecified) What is its recorded TGI?
3.91 µM

Consider the molecule shown here: CCOc1ccc2nc(NC(=O)C(=O)C(C#N)CC(C)(C)C=O)sc2c1 (stereo unspecified) What is its recorded TGI?
> 100 µM
